B1: ZNF263 (parent)
chain: QRTHTGEKPYKCPECGEIFAHSSN

Variants of: B1
protocolNotes: protein stability index of a GFP-peptide fusion (GPS, HEK-293T) (PSI 1-6); higher = more stable;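 further: lentivirally expressed fusions sorted by FACS into six bins by GFP to DsRed ratio, PSI derived from sequencing read proportions per bin multiplied by bin number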
conditionInfo: c terminus: a fixed tail appended
observedProperty: protein stability index

Here are 3 variants together with their reported answers.
1) T5M ... 3.09
2) H4T ... 3.02
3) T5L ... 2.99

For record E14F the listed protein stability index is 3.09

Ref: the supplement of paper PMC10567573
